The reported measurements were obtained from paper PMC11879280.

Test system: S. aureus 04
Settings: S. aureus 04; CAMHB, 37°C, 16–20 h
Provide the reported MIC of antibiotics of each item.
Record the value in µg/mL, omitting the unit from your answer.

# MIC of antibiotics (molecule: CO/N=C(\C(=O)N[C@@H]1C(=O)N2C(C(=O)O)=C(COC(C)=O)CS[C@H]12)c1csc(N)n1 [Cefox, cefotaxime, reference compound] ) is 0.5

Lab note: measured MIC of antibiotics of CC[C@H]1OC(=O)[C@H](C)[C@@H](O[C@H]2C[C@@](C)(OC)[C@@H](O)[C@H](C)O2)[C@H](C)[C@@H](O[C@@H]2O[C@H](C)C[C@H](N(C)C)[C@H]2O)[C@](C)(O)C[C@@H](C)C(=O)[C@H](C)[C@@H](O)[C@]1(C)O [Ery, erythromycin, reference compound] was 0.5

Entry CN[C@H](CC(C)C)C(=O)N[C@H]1C(=O)N[C@@H](CC(N)=O)C(=O)N[C@H]2C(=O)N[C@H]3C(=O)N[C@H](C(=O)N[C@H](C(=O)O)c4cc(O)cc(O)c4-c4cc3ccc4O)[C@H](O)c3ccc(c(Cl)c3)Oc3cc2cc(c3O[C@@H]2O[C@H](CO)[C@@H](O)[C@H](O)[C@H]2O[C@H]2C[C@](C)(N)[C@H](O)[C@H](C)O2)Oc2ccc(cc2Cl)[C@H]1O [Van, vancomycin, reference compound] , MIC of antibiotics reported as 1

# MIC of antibiotics (molecule: CN(C)c1ccc(O)c2c1C[C@H]1C[C@H]3[C@H](N(C)C)C(O)=C(C(N)=O)C(=O)[C@@]3(O)C(O)=C1C2=O [Min, minocycline, reference compound] ) is 0.25

MIC of antibiotics recorded for this molecule, O=C(N[C@H](CO)[C@H](O)c1ccc([N+](=O)[O-])cc1)C(Cl)Cl [Chl, chloramphenicol, reference compound] , is 2

---

Tested on: P. aeruginosa AR-1270
Conditions: P. aeruginosa AR-1270; CAMHB, 37°C, 16–20 h
Provide the recorded MIC of antibiotics for the entries that follow.

Value of measured MIC of antibiotics for the entry C[C@@H](O)[C@H]1C(=O)N2C(C(=O)O)=C(S[C@@H]3CN[C@H](C(=O)N(C)C)C3)[C@H](C)[C@H]12 [Mer, meropenem, reference compound] : >64 µg/mL

The compound identified as CC(C)(O/N=C(\C(=O)N[C@@H]1C(=O)N2C(C(=O)[O-])=C(C[n+]3ccccc3)CS[C@H]12)c1csc(N)n1)C(=O)O [Cefaz, ceftazidime, reference compound] registered its MIC of antibiotics at >512 µg/mL

Reported MIC of antibiotics ( CNC(C)C1CCC(N)C(OC2C(N)CC(N)C(OC3OCC(C)(O)C(NC)C3O)C2O)O1 (stereo not shown) [Gen, gentamicin, reference compound] ) = >128 µg/mL

MIC of antibiotics recorded for this compound, C[C@H]1[C@H](NC(=O)/C(=N\OC(C)(C)C(=O)O)c2csc(N)n2)C(=O)N1S(=O)(=O)O [Azt, aztreonam, reference compound] , is >128 µg/mL

---

System: K. pneumoniae JIE4212
Details: K. pneumoniae JIE4212; MHB (melimine/Mel4 with 0.2% BSA, 0.01% acetic acid); mean MIC
Square brackets hold non-standard residues; d marks the D form. Peptide text beside a SMILES is read from it. N(tridecyl)Gly = CCCCCCCCCCCCCNCC(=O)O; Nspe = C[C@H](NCC(=O)O)c1ccccc1; Nlys = NCCCCNCC(=O)O
Readout type: MIC of peptidomimetics (µg/mL)
Answer with a number only, understood to be in µg/mL.

Case C[C@@H](c1ccccc1)N(CC(N)=O)C(=O)CN(CCCCN)C(=O)CN(C(=O)CN(C(=O)CN(CCCCN)C(=O)CN(C(=O)CN(C(=O)CN(CCCCN)C(=O)CN(C(=O)CN(C(=O)CNCCCCN)[C@@H](C)c1ccccc1)[C@@H](C)c1ccccc1)[C@@H](C)c1ccccc1)[C@@H](C)c1ccccc1)[C@@H](C)c1ccccc1)[C@@H](C)c1ccccc1 [TM6] (H-[Nlys][Nspe][Nspe][Nlys][Nspe][Nspe][Nlys][Nspe][Nspe][Nlys][Nspe]-NH2) , K. pneumoniae JIE4212, MIC of peptidomimetics recorded as 15.6

Value sought: MIC of peptidomimetics, system K. pneumoniae JIE4212, item CCCCCCCCCCCCCNCC(=O)N(CCCCN)CC(=O)N(CC(=O)N(CC(=O)N(CCCCN)CC(=O)N(CCCCN)CC(N)=O)[C@@H](C)c1ccccc1)[C@@H](C)c1ccccc1 [TM15] (H-[N(tridecyl)Gly][Nlys][Nspe][Nspe][Nlys][Nlys]-NH2) . Result: 62.5

Measured MIC of peptidomimetics (K. pneumoniae JIE4212), entry C[C@@H](c1ccccc1)N(CC(N)=O)C(=O)CN(C(=O)CN(CCCCN)C(=O)CN(C(=O)CN(C(=O)CN(CCCCN)C(=O)CN(C(=O)CN(C(=O)CN(CCCCN)C(=O)CN(C(=O)CN(C(=O)CNCCCCN)[C@@H](C)c1ccccc1)[C@@H](C)c1ccccc1)[C@@H](C)c1ccccc1)[C@@H](C)c1ccccc1)[C@@H](C)c1ccccc1)[C@@H](C)c1ccccc1)[C@@H](C)c1ccccc1 [TM1] (H-[Nlys][Nspe][Nspe][Nlys][Nspe][Nspe][Nlys][Nspe][Nspe][Nlys][Nspe][Nspe]-NH2) : 15.6
